# system tested: NdCld wild-type
# test summary: Titration of SCN− and F− to NdCld wild-type, UV–vis, dissociation constant
# Format: binding, Candidatus Nitrospira defluvii
# test context: F− to wild-type protein, pH 5.5, 25°C
property label: Kd (mM)
Numbers only, in mM.

Complete the entry with Kd for F [F^−, fluoride]
5.9

----------
# system tested: UniProtKB B3U4H7
# Sequence (B3U4H7 27-264): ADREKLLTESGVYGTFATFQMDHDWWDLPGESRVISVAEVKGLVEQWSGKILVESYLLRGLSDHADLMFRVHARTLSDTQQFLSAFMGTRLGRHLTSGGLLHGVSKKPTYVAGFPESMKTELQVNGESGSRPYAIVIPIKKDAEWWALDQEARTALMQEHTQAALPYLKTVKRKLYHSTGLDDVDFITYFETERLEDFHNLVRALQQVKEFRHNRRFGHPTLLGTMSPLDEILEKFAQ
# test summary: UV-vis titration, Soret band […] nm
# Type: binding
# Set-up: gene cld; TEV-cleavable N-terminal Strep-II tag, modified pET-21b(+), E. coli Tuner (DE3) with hemin added; haeme b pentamer
property label: pKd
Give bare numbers, as −log10 of the molar value.

With UniProtKB B3U4H7 as the test system, provide measured pKd for this compound: N#CS [SCN^−, thiocyanate]
3.82
